test_target: glutathione S-transferase (GST)-fused full-length human Syk protein (Homo sapiens)
Construct: (GST)-fused full-length human Syk protein; GST (glutathione S-transferase); purchased Carna Biosciences
protocol_text: Syk enzyme assay
Format: biochemical
condition: Syk enzyme assay, Test Example 1; read-out: IC50 of Syk-inhibitory activity
pIC50: −log10 of the molar value.
Reported values of pIC50 for individual entries

// below: answered molecules
> print(dat)
                                   molecule  reported.result
1  CCC[C@@H](Nc1nc(Nc2ccc3nc(C)c(C)nc3c2)c(C(N)=O)cc1F)[C@H](C)N           > 8.00
2  NC(=O)c1cc(F)c(NC2CCCCC2N)nc1Nc1ccc(NCCCN2CCOCC2)nc1 (stereo not shown)     7.30 to 8.00

Sure, the documented pIC50 for NC(=O)c1cc(F)c(N[C@@H]2CCCC[C@@H]2N)nc1Nc1cnc2c(c1)CCC2 (relative stereo) is > 8.00

Sure, the documented pIC50 for NC(=O)c1cc(F)c(NC2CCCCC2N)nc1Nc1ccnc(-c2ccc3cccnc3c2)c1 (stereo not shown) is > 8.00
